This listing pairs compounds with measured MTD.
- System: Mus musculus
- procedure.summary: Minimum tolerated dose against Lox melanoma human xenograft models in athymic mice
- Format: functional
Unit mpk implied. Number only.

In the examples that follow, each entry is paired with its recorded MTD.
CN[C@H](C(=O)N[C@H](C(=O)N(C)[C@H](/C=C(\C)C(=O)O)C(C)C)C(C)(C)C)C(C)(C)c1cccc(Br)c1 has a reported MTD of 4

CN[C@H](C(=O)N[C@H](C(=O)N(C)[C@H](/C=C(\C)C(=O)O)C(C)C)C(C)(C)C)C(C)(C)c1cccc(C)c1 has a reported MTD of 1.5

Alright, here's another compound for you.
CN[C@H](C(=O)N[C@H](C(=O)N(C)[C@H](/C=C(\C)C(=O)O)C(C)C)C(C)(C)C)C(C)(C)c1cccc(Cl)c1 has a reported MTD of 3

Where do these numbers come from? They come from ChEMBL document CHEMBL1137922.
